- target-desc: DNA polymerase alpha catalytic subunit (Homo sapiens, UniProt P09884)
- Sequence (P09884 whole entry): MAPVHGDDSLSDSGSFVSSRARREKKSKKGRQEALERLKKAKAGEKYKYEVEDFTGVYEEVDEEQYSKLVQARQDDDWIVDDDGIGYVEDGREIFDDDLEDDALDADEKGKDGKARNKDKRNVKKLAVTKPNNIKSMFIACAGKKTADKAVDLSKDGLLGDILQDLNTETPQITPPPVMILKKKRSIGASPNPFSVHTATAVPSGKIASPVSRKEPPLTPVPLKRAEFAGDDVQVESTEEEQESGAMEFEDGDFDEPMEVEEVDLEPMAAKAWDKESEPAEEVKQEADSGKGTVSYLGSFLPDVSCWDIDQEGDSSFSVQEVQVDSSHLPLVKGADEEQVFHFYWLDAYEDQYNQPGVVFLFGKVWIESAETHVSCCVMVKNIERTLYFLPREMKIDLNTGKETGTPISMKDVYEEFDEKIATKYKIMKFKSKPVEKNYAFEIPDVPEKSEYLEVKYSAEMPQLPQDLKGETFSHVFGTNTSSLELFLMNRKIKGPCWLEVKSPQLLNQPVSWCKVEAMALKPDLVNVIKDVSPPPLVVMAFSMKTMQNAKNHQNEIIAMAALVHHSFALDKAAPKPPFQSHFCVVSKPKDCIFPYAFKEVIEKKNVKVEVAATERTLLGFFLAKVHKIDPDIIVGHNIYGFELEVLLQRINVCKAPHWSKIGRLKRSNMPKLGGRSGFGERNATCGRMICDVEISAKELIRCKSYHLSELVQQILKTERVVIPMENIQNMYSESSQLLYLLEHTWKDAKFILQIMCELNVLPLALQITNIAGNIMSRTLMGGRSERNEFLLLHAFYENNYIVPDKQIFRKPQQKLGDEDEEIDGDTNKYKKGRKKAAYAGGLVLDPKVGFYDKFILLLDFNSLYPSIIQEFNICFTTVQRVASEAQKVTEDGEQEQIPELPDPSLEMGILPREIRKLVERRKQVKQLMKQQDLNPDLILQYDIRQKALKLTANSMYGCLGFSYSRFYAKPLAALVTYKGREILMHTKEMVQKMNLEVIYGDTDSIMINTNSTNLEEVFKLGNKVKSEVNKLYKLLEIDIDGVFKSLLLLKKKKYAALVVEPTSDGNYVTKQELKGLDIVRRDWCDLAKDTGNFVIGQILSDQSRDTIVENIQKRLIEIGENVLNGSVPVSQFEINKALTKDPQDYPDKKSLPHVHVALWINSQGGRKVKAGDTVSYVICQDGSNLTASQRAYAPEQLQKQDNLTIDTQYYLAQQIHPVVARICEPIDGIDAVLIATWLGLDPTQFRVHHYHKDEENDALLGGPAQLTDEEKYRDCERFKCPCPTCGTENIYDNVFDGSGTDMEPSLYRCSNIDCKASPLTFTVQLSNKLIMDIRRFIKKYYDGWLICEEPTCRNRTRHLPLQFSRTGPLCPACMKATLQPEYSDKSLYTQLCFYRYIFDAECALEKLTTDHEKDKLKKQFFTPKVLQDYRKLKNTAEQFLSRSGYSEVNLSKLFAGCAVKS
- method-notes: Inhibition of human DNA polymerase-alpha (unknown origin)
experimental-endpoint: IC50 (µM)
Give the value, in units of µM, as a plain number.

// Oc1ccc(/C=C/c2cc(O)cc(O)c2)cc1 [RESVERATROL] : IC50 value = 3.3

Ref: ChEMBL document CHEMBL4622845
